Assay protocol: gradient 5% acetonitrile 3 min, to 50% in 2 min, to 85% in 15 min, held 3 min, 100 µL/min
Condition parameters: column: Zorbax Extend-C18 2.1 x 50 mm; eluents: water / acetonitrile, 0.1% formic acid
Binning rule for recorded RP-LC retention time: low range (below 600 s), mid range (600 s to below 900 s), high range (900 s or more)

Determine which band this molecule sits in: `CCCNC(=O)c1cc(-c2ccncc2)cn1Cc1ccccc1C` mid range

Determine which band this molecule sits in: `COc1ccc(NC(=O)C2CCN(S(=O)(=O)c3cc(C(=O)N(C)C)cs3)CC2)cc1` mid range

Determine which band this molecule sits in: `COC(=O)c1ccc(NC(=O)CSc2nnc3c4cc(-c5ccccc5)nn4ccn23)cc1` high range

Determine which band this molecule sits in: `CC(C)NC(=O)C1CCN(c2cncnc2N2CCOCC2)CC1` low range

Determine which band this molecule sits in: `CCOc1ccc(-c2ccc(=O)n(CCc3nc(-c4ccc5c(c4)OCO5)no3)n2)cc1` high range

Determine which band this molecule sits in: `CCN(CC)C(=O)c1ccc2c(c1)ncn2CCNC(=O)Nc1ccc(Br)cc1` mid range

Determine which band this molecule sits in: CN(CC1CCOC1)C(=O)Cc1cccc(Cl)c1 (stereo unspecified) mid range

Determine which band this molecule sits in: `Cc1cc(N2CCOCC2)n2nc(CN3CCN(c4cc(Cl)ccc4C)CC3)nc2n1` mid range

Determine which band this molecule sits in: CN(CC1CCOC1)C(=O)c1cccc(Cl)c1 (stereo unspecified) mid range

Determine which band this molecule sits in: `Cc1ccc(-c2cc(NC(=O)Cc3ccsc3)on2)s1` high range

Determine which band this molecule sits in: O=C(Nc1ccc(Cl)cc1)C1CCCN(c2nc3ccsc3c(=O)n2Cc2ccc(F)cc2)C1 (stereo unspecified) high range

Determine which band this molecule sits in: `CCn1cccc(-c2nnc(SCC(=O)NCc3ccco3)n2C)c1=O` low range

Determine which band this molecule sits in: COc1ccccc1-c1noc(C2CCCN2C(=O)NC(C)C)n1 (stereo unspecified) mid range

Determine which band this molecule sits in: O=C(NC1CCc2nnc(C3CC3)n2CC1)c1cnco1 (stereo unspecified) low range

---

Assay protocol: gradient 5% acetonitrile 3 min, to 50% in 2 min, to 85% in 15 min, held 3 min, 100 µL/min
Condition parameters: column: Zorbax Extend-C18 2.1 x 50 mm; eluents: water / acetonitrile, 0.1% formic acid
Reported endpoint: RP-LC retention time (s)
Just the number please, in s, no unit attached.

Please look up its RP-LC retention time: COc1ccc(NC(=O)C2CCCN2S(=O)(=O)c2cc3c(cc2C)NC(=O)CO3)cc1Cl (centres undefined) 775

Please look up its RP-LC retention time: `O=C(Nc1ccc(F)cc1Cl)c1cccn1Cc1noc(C2CC2)n1` 924

Please look up its RP-LC retention time: `CCc1ccc2[nH]c3c(c(=O)c2c1)CN(CC(=O)NCc1ccccc1OC)CC3` 621

Please look up its RP-LC retention time: COc1cccc(CC2C(=O)Nc3ccc(Br)cc32)c1OC (centres undefined) 842

Please look up its RP-LC retention time: CCCC(NC(=O)Cc1ccccc1Cl)C(=O)Nc1nc2ccccc2[nH]1 (centres undefined) 713

Please look up its RP-LC retention time: `COc1cccc(-c2nc(-c3ccc(S(=O)(=O)N4CCCC4)cc3)no2)c1` 1180

Please look up its RP-LC retention time: `COc1ccc(CNC(=O)c2ccc3c(=O)n(-c4ccc(F)cc4)c(N4CCCC4)nc3c2)cc1` 852

Please look up its RP-LC retention time: `Cc1ccc(-n2nnc(C(=O)O)c2-c2ccncc2)cc1` 636

Please look up its RP-LC retention time: O=C(C1CCCN(c2ccc(-c3ccccc3)nn2)C1)N1CCN(C2CCCCC2)CC1 (centres undefined) 597

Please look up its RP-LC retention time: `CCc1nc(N2CCCC2=O)sc1C(=O)Nc1ccc(OC)c(Cl)c1` 905

Please look up its RP-LC retention time: `CCn1nnc2ccc(-c3noc(-c4cccc(NC(C)=O)c4)n3)cc21` 819

Please look up its RP-LC retention time: `Brc1ccc(-c2ccc(CNc3ncn[nH]3)o2)cc1` 708

Please look up its RP-LC retention time: `O=C(Nc1ccc(N2CCN(C3CCCCC3)C2=O)nc1)c1ccc(F)cc1` 926

Please look up its RP-LC retention time: `Cc1cc(C(=O)N2CCCCC2)c2c(=O)n(Cc3nc(-c4ccccc4)oc3C)c(=O)n(C)c2n1` 1020

Please look up its RP-LC retention time: COc1ccc2c(c1)OC1(C)CC2C(S(=O)(=O)c2ccc(C)cc2)C(=O)N1 (centres undefined) 877

Please look up its RP-LC retention time: Cc1ccc(N2CCN(C(=O)C3CCc4sc(C(=O)N(C)C)cc4C3)CC2)cc1 (centres undefined) 825

Please look up its RP-LC retention time: O=C(C1Cc2ccccc2CN1S(=O)(=O)c1cccs1)N1CCCCCC1 (centres undefined) 932

Please look up its RP-LC retention time: CC(=O)N1CCC(NC(=O)Nc2cccc(C)c2)C1 (centres undefined) 635

Please look up its RP-LC retention time: `CCOc1ccc(C(=O)Nc2nc(-c3cccc(Br)c3)cs2)cc1` 1240

Please look up its RP-LC retention time: Cc1ccc(Cn2c(N3CCCC(C(=O)NCC4CC4)C3)nc3ccsc3c2=O)cc1 (centres undefined) 894

Please look up its RP-LC retention time: `CCC(=O)N1CCc2c(sc3ncnc(N4CCc5ccccc54)c23)C1` 734

Please look up its RP-LC retention time: Fc1ccc(C2Cn3nnc(-c4nc(-c5ccc(OC(F)(F)F)cc5)no4)c3CO2)cc1 (centres undefined) 1250

Please look up its RP-LC retention time: `Cc1sc2ccn(C)c(=O)c2c1C(=O)NCc1ccc(Br)cc1` 811

Please look up its RP-LC retention time: `CCc1ccc(-n2c(-c3ccc(Cl)cc3)cn3c4c(=O)n(C)c(=O)n(C)c4nc23)cc1` 1150

Please look up its RP-LC retention time: COc1ccc(C2=NN(C(=O)c3ccccc3)C(c3cccc([N+](=O)[O-])c3)C2)cc1 (centres undefined) 1000

Please look up its RP-LC retention time: O=C(NCC(c1ccsc1)N1CCCC1)Nc1ccc(Cl)cc1 (centres undefined) 578

Please look up its RP-LC retention time: `Cc1cc(-n2c(C)nc3ccccc3c2=O)ccc1NC(=O)CCC1CCCC1` 892

Please look up its RP-LC retention time: `COc1cc(O)ccc1-c1nc2ccc(Br)cn2c1Nc1ccccc1C` 736

Please look up its RP-LC retention time: `CCc1nc2cc(-c3noc(-c4ccnn4C)n3)ccc2o1` 971

Please look up its RP-LC retention time: `CCOC(=O)c1c(C)oc2nc(C)nc(NCCc3ccc(C)cc3)c12` 1330

Please look up its RP-LC retention time: `COC(=O)c1sccc1NC(=O)Cn1c(C)cc(C)c(-c2nc(-c3ccc(F)cc3)no2)c1=O` 1070

Please look up its RP-LC retention time: `N#Cc1ccc(-c2nc(-c3ccc4c(c3)ncn4CCN3CCOCC3)no2)cc1` 624

Please look up its RP-LC retention time: CC1(C(=O)NCc2ccc(F)cc2)Cn2cnc(C(=O)NC3CC3)c2C(=O)N1C1CC1 (centres undefined) 670

Please look up its RP-LC retention time: Cc1ccc(Cn2c(CN3CC(C)OC(C)C3)nc3c2c(=O)n(C)c(=O)n3C)cc1 (centres undefined) 700

Please look up its RP-LC retention time: `CCn1nc(C(=O)Nc2cccc3c2C(=O)N(C)C3=O)cc1C` 856

Please look up its RP-LC retention time: CC(C)(C)NC(=O)N1CCCN(C2CCN(Cc3ccccc3)C2=O)CC1 (centres undefined) 618

Please look up its RP-LC retention time: `Cc1ccccc1-n1c(-c2ccc(Cl)cc2)cn2c3c(=O)n(C)c(=O)n(C)c3nc12` 1020

Please look up its RP-LC retention time: `CCCN(Cc1ccc(Cl)cc1)Cc1cc(=O)n2cc(C)ccc2n1` 674

Please look up its RP-LC retention time: CCOc1ccc(-c2noc(C3CC(=O)N(c4cc(Cl)ccc4OC)C3)n2)cc1 (centres undefined) 1040

---

Assay protocol: gradient 5% acetonitrile 3 min, to 50% in 2 min, to 85% in 15 min, held 3 min, 100 µL/min
Condition parameters: column: Zorbax Extend-C18 2.1 x 50 mm; eluents: water / acetonitrile, 0.1% formic acid
Reported endpoint: RP-LC retention time (s)
Just the number please, in s, no unit attached.

Please look up its RP-LC retention time: `Cc1oc(CNC(=O)Nc2ccc(Cl)cc2F)nc1C(=O)N1CCCC1` 723

Please look up its RP-LC retention time: `CCOC(=O)COc1cc(-c2ccccc2)nc2ccc(NC(=O)COc3ccc(F)cc3)cc12` 868

Please look up its RP-LC retention time: `COc1cccc(NC(=O)C2CCN(c3cc(N4CCCC4)ncn3)CC2)c1` 652

Please look up its RP-LC retention time: COC(=O)CCNC(=O)C1c2ccccc2C(=O)N(C2CCCC2)C12CCCCC2 (centres undefined) 903

Please look up its RP-LC retention time: `Cc1ccc(CNC(=O)c2ccc3c(=O)n(Cc4ccccc4)c(N4CCCC4)nc3c2)o1` 683

Please look up its RP-LC retention time: `COc1ccc(C(=O)NCCc2sc(-c3cccc(F)c3)nc2C)c(OC)c1` 921

Please look up its RP-LC retention time: `COc1cc(-c2nc3ccc(Cl)cn3c2Nc2ccccc2C)ccc1O` 720

Please look up its RP-LC retention time: `Cc1cccc(NC(=O)C2CCN(S(=O)(=O)c3ccc4c(c3)sc(=O)n4C(C)C)CC2)n1` 815

Please look up its RP-LC retention time: `COCCCNC(=O)C1CCN(C(=O)c2cc3oc(C)cc3n2Cc2c(F)cccc2Cl)CC1` 826
